test_details: chemical genetic growth profiling, strain panel (AID 1159580);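 also: tested at 20 µM; growth read once vehicle control cultures reached saturation at 30 °C; 1 = growth at the plate median or of vehicle wells; lower values mean less growth of the strain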
particulars: S. cerevisiae deletion strains, growth OD, locus YMR263W, strain SAP30, hits give low values
The whole screen tested about 5,500 compounds, of which about 2,000 (36%) were called active. Another 18% or so got no clear call; they are omitted. This is one part of the list.
measurement_name: normalized growth

Lookup: Which value of normalized growth has been reported for CCCCCCCCCCCCCCCCOCC(COCC(F)(F)F)OP(=O)(O)OCO (stereo not drawn) in the records?
Found: 1.02 (inactive)

Lookup: Which value of normalized growth has been reported for COC(=O)c1scc(S(=O)(=O)C(C)C)c1N/N=C(/C#N)C(=O)c1ccccc1 in the records?
Found: 0.905 (inactive)

Lookup: Which value of normalized growth has been reported for CC(C)S(=O)(=O)c1csc(C(N)=O)c1Cl in the records?
Found: 0.996 (inactive)

###

test_details: chemical genetic growth profiling, strain panel (AID 1159580);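 also: tested at 20 µM; growth read once vehicle control cultures reached saturation at 30 °C; 1 = growth at the plate median or of vehicle wells; lower values mean less growth of the strain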
particulars: S. cerevisiae deletion strains, growth OD, locus YJL115W, strain asf1, hits give low values
Hit rate of the full screen: of about 5,500 compounds, about 2,000 (36%) were called active. Roughly 18% stayed inconclusive and do not appear here. The list shows a part of the results.
What normalized growth was measured for each of the following?

Lookup: Which value of normalized growth has been reported for CCCCCCCCCCCCCCCCCCOCC(O)CO (stereo not given) in the records?
Found: 0.987 (inactive)

Lookup: Which value of normalized growth has been reported for Cc1onc(-c2ccccc2)c1C(=O)NC1C(=O)N2[C@@H]1SC(C)(C)[C@@H]2C(=O)O (stereo not given in full) in the records?
Found: 1.01 (inactive)

Lookup: Which value of normalized growth has been reported for CNC(Cc1c[nH]c2ccccc12)C(=O)O (stereo not given) in the records?
Found: 0.971 (inactive)

Lookup: Which value of normalized growth has been reported for O=C(NC1CCCCC1)NC1CCCCC1 in the records?
Found: 0.969 (inactive)

Lookup: Which value of normalized growth has been reported for CCOc1ccc(C(=O)c2cc(O)c(OC)c(OC)c2O)cc1 in the records?
Found: 1 (inactive)

Lookup: Which value of normalized growth has been reported for CC(=O)NS(=O)(=O)c1ccc(NC(=O)c2ccccc2C(=O)O)cc1 in the records?
Found: 1.02 (inactive)

Lookup: Which value of normalized growth has been reported for COc1cc2cc3c4cc(OC)c(OC)cc4cc[n+]3c(C)c2cc1OC in the records?
Found: 1.01 (inactive)

Lookup: Which value of normalized growth has been reported for CCOc1ccc(NC(C)=O)cc1 in the records?
Found: 1.01 (inactive)

Lookup: Which value of normalized growth has been reported for C[C@]12CCC(=O)C=C1CCC1C2C(=O)C[C@@]2(C)C1CC[C@]2(O)C(=O)CO (stereo not given in full) in the records?
Found: 1.01 (inactive)

Lookup: Which value of normalized growth has been reported for CC(=O)N[C@@H](Cc1c[nH]c2ccccc12)C(=O)O in the records?
Found: 0.978 (inactive)

Lookup: Which value of normalized growth has been reported for CC(=O)Oc1cc2c(c(C)c1OC(C)=O)CC1OC13C2(C)CCC1(C)C2CC(C)(C(=O)O)CCC2(C)CCC13C (stereo not given) in the records?
Found: 1.01 (inactive)

Lookup: Which value of normalized growth has been reported for NC[C@H]1O[C@H](O[C@H]2C(O[C@@H]3O[C@H](CO)[C@@H](O)[C@H]3O)[C@@H](O)[C@H](N)C[C@@H]2N)[C@H](N)[C@@H](O)[C@@H]1O (stereo not given in full) in the records?
Found: 0.995 (inactive)

Lookup: Which value of normalized growth has been reported for COc1cccc(OC)c1C(=O)N[C@@H]1C(=O)N2[C@@H]1SC(C)(C)[C@@H]2C(=O)O in the records?
Found: 0.999 (inactive)

Lookup: Which value of normalized growth has been reported for COc1ccc([C@H]2COc3c(ccc(O)c3OC)C2)c(OC)c1O in the records?
Found: 0.967 (inactive)

Lookup: Which value of normalized growth has been reported for CC1=C(O)C(=O)C=C2C1=CC=C1[C@@]2(C)CC[C@@]2(C)[C@@H]3C[C@](C)(C(=O)O)CC[C@]3(C)CC[C@]12C in the records?
Found: 0.856 (active)

Lookup: Which value of normalized growth has been reported for C=C(C)[C@@H]1CC[C@]2(CO)CC[C@]3(C)[C@H](CCC4[C@@]5(C)CC[C@H](O)C(C)(C)C5CC[C@]43C)C12 (stereo not given in full) in the records?
Found: 1.01 (inactive)

Lookup: Which value of normalized growth has been reported for CC[C@H]1OC(=O)[C@H](C)[C@@H](O[C@H]2C[C@@](C)(OC)[C@@H](O)[C@H](C)O2)[C@H](C)[C@@H](O[C@@H]2O[C@H](C)C[C@H](N(C)C)[C@H]2O)[C@](C)(O)C[C@@H](C)[C@@H]2N[C@@H](COCCOC)O[C@H]([C@H]2C)[C@]1(C)O in the records?
Found: 0.995 (inactive)

Lookup: Which value of normalized growth has been reported for NCCc1c[nH]c2ccccc12 in the records?
Found: 0.961 (inactive)

Lookup: Which value of normalized growth has been reported for C#C[C@]1(O)CCC2C3CCC4=Cc5oncc5C[C@]4(C)C3CC[C@@]21C (stereo not given in full) in the records?
Found: 0.952 (inactive)

Lookup: Which value of normalized growth has been reported for NCCc1cc(O)c(O)cc1O in the records?
Found: 0.984 (inactive)

Lookup: Which value of normalized growth has been reported for COc1cc(NS(=O)(=O)c2ccc(N)cc2)ncn1 in the records?
Found: 0.964 (inactive)

Lookup: Which value of normalized growth has been reported for O=C1c2ccccc2C(=O)C1c1ccccc1 in the records?
Found: 0.99 (inactive)

Lookup: Which value of normalized growth has been reported for COc1ccc(C(=O)c2ccc(O)cc2)c(O)c1O in the records?
Found: 0.985 (inactive)

Lookup: Which value of normalized growth has been reported for CC[C@H]1CN2CCc3cc(OC)c(OC)cc3C2C[C@@H]1CC1NCCc2cc(OC)c(OC)cc21 (stereo not given in full) in the records?
Found: 0.962 (inactive)

Lookup: Which value of normalized growth has been reported for C1CCC(C(CC2CCCCN2)C2CCCCC2)CC1 (stereo not given) in the records?
Found: 0.984 (inactive)

Lookup: Which value of normalized growth has been reported for CC(=O)CC1CCCCN1 (stereo not given) in the records?
Found: 1.02 (inactive)

Lookup: Which value of normalized growth has been reported for CC(=O)O[C@@H]1CC[C@]2(C)C3CC[C@]4(C)C(=O)CCC4C3CC[C@H]2C1 (stereo not given in full) in the records?
Found: 0.991 (inactive)

Lookup: Which value of normalized growth has been reported for COc1cc2c(cc1OC)[C@@H]1C(=O)c3ccc4c(c3O[C@@H]1CO2)CC(C(C)C)O4 (stereo not given in full) in the records?
Found: 0.987 (inactive)

Lookup: Which value of normalized growth has been reported for COc1ccc(C(=O)c2ccccc2)c(O)c1O in the records?
Found: 0.945 (inactive)

Lookup: Which value of normalized growth has been reported for CNS(=O)(=O)c1ccc(NC(=O)c2ccccc2C(=O)O)cc1 in the records?
Found: 0.995 (inactive)

Lookup: Which value of normalized growth has been reported for COc1cnc(NS(=O)(=O)c2ccc(N)cc2)nc1 in the records?
Found: 0.993 (inactive)

Lookup: Which value of normalized growth has been reported for Cc1onc(-c2ccccc2Cl)c1C(=O)N[C@@H]1C(=O)N2[C@@H]1SC(C)(C)[C@@H]2C(=O)O in the records?
Found: 1.01 (inactive)

Lookup: Which value of normalized growth has been reported for COC(=O)[C@]1(C)CC[C@]2(C)CC[C@]3(C)C4=CC=C5C(=CC(=O)C(O)=C5C)[C@]4(C)CC[C@@]3(C)[C@@H]2C1 in the records?
Found: 0.884 (active)

Lookup: Which value of normalized growth has been reported for CN1CCN(CCCN2c3ccccc3Sc3ccc(C(F)(F)F)cc32)CC1 in the records?
Found: 0.0851 (active)

Lookup: Which value of normalized growth has been reported for O=c1[nH]cnc2c1ncn2C1O[C@H](CO)[C@@H](O)[C@H]1O (stereo not given in full) in the records?
Found: 0.987 (inactive)

Lookup: Which value of normalized growth has been reported for COc1ccc(C2C(=O)c3ccccc3C2=O)cc1 in the records?
Found: 0.998 (inactive)

Lookup: Which value of normalized growth has been reported for CC(=O)OCC(=O)[C@@]1(O)CCC2C3CCC4=CC(=O)CC[C@]4(C)C3[C@@H](O)C[C@@]21C (stereo not given in full) in the records?
Found: 1.01 (inactive)

Lookup: Which value of normalized growth has been reported for OCCN1CCN(CCCN2c3ccccc3Sc3ccc(C(F)(F)F)cc32)CC1 in the records?
Found: 0.95 (inactive)

Lookup: Which value of normalized growth has been reported for CC(=O)OC1CCC2(C)C3CC(=O)C4(C)C(CC5OC6(CCC(C)CO6)[C@@H](C)C54)C3CC[C@H]2C1 (stereo not given in full) in the records?
Found: 0.958 (inactive)

Lookup: Which value of normalized growth has been reported for CNCC[C@@H](Oc1ccccc1)c1ccccc1 in the records?
Found: 0.957 (inactive)

These data points were gathered from PubChem BioAssay AID1159580.
